Read-out: catalase (CAT), CAT (gene 847)
test: LTEA_HepaRG_CAT: Life Technologies and Expression Analysis (LTEA) Assay for catalase (CAT) using HepaRG (AID 2283452);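 as to AC50: TaqMan qRT-PCR signal normalized to ACTB GAPDH and POLR2A housekeeping genes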
runConditions: mRNA level, 48 h; actives raise or lower the signal
Activity calls are given as the source filed them. The calls were made as follows: active = hit-call score of the fitted dose curve at least 0.9, where 1 is the maximum; inactive = score below 0.9.
metricName: AC50

{"smilesCode": "CC1=CC(=O)CC(C)(C)C1", "metricName": "AC50", "assayValue": "inactive"}
{"smilesCode": "CC(=O)OC[C@H]1O[C@@](COC(C)=O)(O[C@H]2O[C@H](COC(C)=O)[C@@H](OC(C)=O)[C@H](OC(C)=O)[C@H]2OC(C)=O)[C@@H](OC(C)=O)[C@@H]1OC(C)=O", "metricName": "AC50", "assayValue": "inactive"}
{"smilesCode": "CC(C)CCCCCCOC(=O)c1ccc(C(=O)OCCCCCCC(C)C)c(C(=O)OCCCCCCC(C)C)c1", "metricName": "AC50", "assayValue": "inactive"}
{"smilesCode": "O=C(OC[C@H]1O[C@@H](OC(=O)c2cc(O)c(O)c(OC(=O)c3cc(O)c(O)c(O)c3)c2)[C@H](OC(=O)c2cc(O)c(O)c(OC(=O)c3cc(O)c(O)c(O)c3)c2)[C@@H](OC(=O)c2cc(O)c(O)c(OC(=O)c3cc(O)c(O)c(O)c3)c2)[C@@H]1OC(=O)c1cc(O)c(O)c(OC(=O)c2cc(O)c(O)c(O)c2)c1)c1cc(O)c(O)c(OC(=O)c2cc(O)c(O)c(O)c2)c1", "metricName": "AC50", "assayValue": "15.2 µM (active)"}

Each recorded value in this set is attributed to PubChem BioAssay (EPA / NIEHS).
